# maps each entry to its KD ratio to GLS3000
Biological target: T1, CD3 epsilon homodimer protein (UniProt P07766 23-126)
T1 construct: also called CD3 (CD3 epsilon)
T1 sequence (P07766 23-126): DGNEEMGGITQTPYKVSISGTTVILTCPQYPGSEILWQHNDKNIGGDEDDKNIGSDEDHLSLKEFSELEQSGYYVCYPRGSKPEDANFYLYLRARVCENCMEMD
Experiment: SPR, antibody over immobilised CD3e homodimer;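 also: SPR at 25 °C with CD3 epsilon homodimer amine-coupled to a CM4 sensor chip and antibody flowed over as analyte in HBS-EP+ running buffer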
Answer with the value's number alone.

CE115HA000/GLS3000 F55L (antibody, IgG1, name in Kabat numbering, V domains shown, one-arm IgG1) VH: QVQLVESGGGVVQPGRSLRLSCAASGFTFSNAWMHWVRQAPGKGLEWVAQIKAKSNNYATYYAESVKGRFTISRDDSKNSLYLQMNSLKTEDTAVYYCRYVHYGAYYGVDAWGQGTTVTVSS VL: DIVMTQSPLSLPVTPGEPASISCRSSQSLVHSNRNTYLHWYQQKPGQAPRLLIYKVSNRLSGVPDRFSGSGSGTDFTLKISRVEAEDVGVYYCGQGTQVPYTFGQGTKLEIK: 1.43

Let us examine a further case.
Consider CE115HA000/GLS3000 K50D (antibody, IgG1, name in Kabat numbering, V domains shown, one-arm IgG1) VH: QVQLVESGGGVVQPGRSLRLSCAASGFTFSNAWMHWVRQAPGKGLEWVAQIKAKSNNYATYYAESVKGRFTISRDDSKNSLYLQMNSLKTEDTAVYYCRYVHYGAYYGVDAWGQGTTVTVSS VL: DIVMTQSPLSLPVTPGEPASISCRSSQSLVHSNRNTYLHWYQQKPGQAPRLLIYDVSNRFSGVPDRFSGSGSGTDFTLKISRVEAEDVGVYYCGQGTQVPYTFGQGTKLEIK . Its measured KD ratio to GLS3000 is 114

Measured values drawn from patent US20210388087A1 for this set.
